- measured on: Mtb Pks13-TE domain (Mycobacterium tuberculosis)
pIC50: −log10 of the molar value.
Threshold rule: pIC50 greater than or equal to 6 is True; below that, False.

Check out these entries, answers already filled in.
[[record]]
compound = "CCOC(=O)c1c(-c2ccc(O)cc2)oc2ccc(O)c(CN3CCCC(CO)C3)c12 (stereo not drawn)"
assigned_class = "True"

[[record]]
compound = "CCOC(=O)c1c(-c2ccccc2)oc2ccc(OC)c(CN3CCCCC3)c12"
assigned_class = "False"

[[record]]
compound = "CCOC(=O)c1c(-c2ccccc2)oc2ccc(O)c(Cc3ccccc3)c12"
assigned_class = "False"

[[record]]
compound = "CNC(=O)c1c(-c2ccccc2)oc2ccc(O)c(CN3CCCC(CO)C3)c12 (stereo not drawn)"
assigned_class = "False"

[[record]]
compound = "CCOC(=O)c1c(-c2ccccc2)oc2ccc(O)cc12"
assigned_class = "False"

[[record]]
compound = "CCOC(=O)c1c(-c2ccc(O)cc2)oc2ccc(O)c(CN3CCCCC3)c12"
assigned_class = "True"


Record "CCOC(=O)c1c(-c2ccccc2)oc2ccc(O)c(CN3CCCC3)c12.Cl" ; criterion: pIC50 no lower than 6. Met?
True

Record "CCOC(=O)c1c(-c2ccccc2)oc2ccc(O)c(CN3CCCCC3)c12" ; criterion: pIC50 no lower than 6. Met?
True

###

IC50 data for Mtb Pks13-TE domain (Mycobacterium tuberculosis) follow.
Return type: number; implicit unit nM.

[[record]]
compound = "CCOC(=O)c1c(-c2ccccc2)oc2ccc(O)c(CN(C)C)c12"
experimental_endpoint = "IC50"
numeric_readout = 1570

[[record]]
compound = "CNC(=O)c1c(-c2ccc(O)cc2)oc2cc(O)cc(CN3CCCCC3)c12"
experimental_endpoint = "IC50"
numeric_readout = 570

[[record]]
compound = "CCOC(=O)c1c(-c2ccccc2)oc2ccc(O)c(CN3CCCC(C)C3)c12 (centres unmarked)"
experimental_endpoint = "IC50"
numeric_readout = 120


Now look at this one.
Form field IC50, entry "CNC(=O)c1c(-c2ccc(O)c(F)c2)oc2ccc(O)c(CN3CCCCC3)c12" : 330

###

- measured on: CYP2C9 (Homo sapiens)
- Sequence (P11712 whole entry): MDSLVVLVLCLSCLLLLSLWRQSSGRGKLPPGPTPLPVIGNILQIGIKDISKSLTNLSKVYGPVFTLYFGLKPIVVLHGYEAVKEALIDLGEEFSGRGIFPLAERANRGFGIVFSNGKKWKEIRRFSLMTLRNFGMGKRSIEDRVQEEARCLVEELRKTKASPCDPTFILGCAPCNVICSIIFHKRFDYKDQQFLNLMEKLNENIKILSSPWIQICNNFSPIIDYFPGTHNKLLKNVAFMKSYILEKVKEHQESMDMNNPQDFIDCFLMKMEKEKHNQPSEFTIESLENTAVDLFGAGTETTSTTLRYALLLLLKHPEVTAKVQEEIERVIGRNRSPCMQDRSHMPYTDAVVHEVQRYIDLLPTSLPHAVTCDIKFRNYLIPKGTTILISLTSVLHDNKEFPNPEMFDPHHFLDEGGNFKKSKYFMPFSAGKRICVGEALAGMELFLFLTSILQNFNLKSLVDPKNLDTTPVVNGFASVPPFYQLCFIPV
experimental endpoint: IC50

Form field IC50, entry Clc1ccc(COC(Cn2ccnc2)c2ccc(Cl)cc2Cl)c(Cl)c1 (stereo not shown) [Miconazole] : > 10 µM

###

- measured on: Mtb Pks13-TE domain (Mycobacterium tuberculosis, UniProt I6X8D2)
experimental endpoint: pIC50
Scale note: pIC50 = -log10(concentration in M).

Value (pIC50, Mtb Pks13-TE domain (Mycobacterium tuberculosis, UniProt I6X8D2)) for record O=C(O)c1c(-c2ccccc2)oc2ccc(O)c(CN3CCCCC3)c12 [TAM10] = 5.18

Value (pIC50, Mtb Pks13-TE domain (Mycobacterium tuberculosis, UniProt I6X8D2)) for record CCOC(=O)c1c(-c2ccccc2)oc2ccc(O)c(CC3CCCCC3)c12 [TAM11] = 4.71

Value (pIC50, Mtb Pks13-TE domain (Mycobacterium tuberculosis, UniProt I6X8D2)) for record CCOC(=O)c1c(-c2ccc(O)nc2)oc2ccc(O)c(CN3CCCCC3)c12 [TAM17] = 6.44

###

IC50 values by entry
- measured on: Mtb Pks13-TE domain (Mycobacterium tuberculosis)
- Sequence (I6X8D2 1451-1733 limits assumed): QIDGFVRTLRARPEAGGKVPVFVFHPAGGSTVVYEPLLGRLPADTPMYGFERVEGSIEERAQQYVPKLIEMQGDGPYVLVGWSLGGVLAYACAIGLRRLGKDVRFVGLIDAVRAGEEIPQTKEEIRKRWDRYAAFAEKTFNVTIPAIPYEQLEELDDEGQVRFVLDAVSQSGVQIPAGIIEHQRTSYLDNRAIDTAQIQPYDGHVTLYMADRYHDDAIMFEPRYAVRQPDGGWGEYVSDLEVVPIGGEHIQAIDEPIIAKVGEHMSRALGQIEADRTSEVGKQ

[[record]]
compound = "CCOC(=O)c1c(-c2ccccc2)oc2cc(O)cc(CN3CCCCC3)c12"
experimental_endpoint = "IC50"
result = "450 nM"

[[record]]
compound = "CCOC(=O)c1c(-c2ccccc2)oc2ccc(O)c(CN3CCCC(CO)C3)c12 (stereo not shown)"
experimental_endpoint = "IC50"
result = "420 nM"

[[record]]
compound = "CCOC(=O)c1c(-c2ccccc2)oc2cccc(CN3CCCCC3)c12"
experimental_endpoint = "IC50"
result = "2000 nM"


Value (IC50, Mtb Pks13-TE domain (Mycobacterium tuberculosis)) for record "CCOC(=O)c1c(-c2ccccc2)oc2ccc(O)c(CN3CCCCCC3)c12.Cl" = 280 nM
